The reported numbers originate from patent US20240327334A1.

system: SARS-CoV-2 replicon; assay: microbe, parasite or virus in culture; format: cell-based; settings: Severe acute respiratory syndrome coronavirus 2, Huh-7
pEC50: −log10 of the molar value.
READOUT NAME: pEC50

{"SMILES ENTRY": "N#CCNC(=O)C(=O)NCc1ccccc1C(=O)NC1(c2cc(-c3cnn(C4CC4)c3)cc3ncccc23)CC1", "TEST RESULT": "5.00 to 6.00"}
{"SMILES ENTRY": "N#CCNC(=O)C(=O)NCc1ccccc1C(=O)NC1(c2cc(C(F)(F)F)nc3ccccc23)CC1", "TEST RESULT": "5.00 to 6.00"}
{"SMILES ENTRY": "O=C(NC/C=C/C(=O)N1CCCO1)C(=O)NCc1ccccc1C(=O)NC1(c2cccc3ccccc23)CC1", "TEST RESULT": "5.00 to 6.00"}
{"SMILES ENTRY": "C#Cc1cc(C(F)(F)F)cc(C2(NC(=O)c3ccccc3CNC(=O)C(=O)NCC#N)CC2)c1", "TEST RESULT": "> 6.00"}
{"SMILES ENTRY": "C#CCNC(=O)C(=O)NCc1ccccc1C(=O)NC1(c2cc(Cl)cc(-c3cnc(C(F)(F)F)nc3)c2)CC1", "TEST RESULT": "> 6.00"}
{"SMILES ENTRY": "O=C(NC/C=C/S(=O)(=O)c1ccccc1)C(=O)NCc1ccccc1C(=O)NC1(c2ccc3ccccc3c2)CC1", "TEST RESULT": "> 6.00"}
{"SMILES ENTRY": "N#CCNC(=O)C(=O)NCc1ccccc1C(=O)NC1(c2cccc3cc(F)ccc23)CC1", "TEST RESULT": "> 6.00"}
{"SMILES ENTRY": "O=C(NCC#Cc1nccs1)C(=O)NCc1ccccc1C(=O)NC1(c2cc(F)cc(C(=O)N3CCOCC3)c2)CC1", "TEST RESULT": "> 6.00"}

====

biological target: SARS-CoV-2 Papain-like (PLpro) protease (Severe acute respiratory syndrome coronavirus 2); test: SARS-CoV-2 Papain-like (PLpro) protease biochemical enzyme inhibition assay (ubiquitin-fluorophore substrate, Ub-R110); conditions: Ub-R110 substrate; run in duplicate; read-out: PLpro IC50
pIC50: −log10 of the molar value.

{"COMPOUND": "C[C@@H](C#Cc1ncccc1Cl)NC(=O)C(=O)NCc1ccccc1C(=O)NC1(c2ccc3nn(C)cc3c2)CC1 [Example 272]", "pIC50": "> 7.00"}
{"COMPOUND": "O=C(NCC#Cc1cscn1)C(=O)NCc1ccccc1C(=O)NC1(c2ccc3ccccc3c2)CC1 [Example 165]", "pIC50": "> 7.00"}
{"COMPOUND": "COC(=O)/C=C/CNC(=O)C(=O)N(C)Cc1ccccc1C(=O)N[C@H](C)c1cccc2ccccc12 [Example 547]", "pIC50": "< 5.00"}
{"COMPOUND": "C#CCNC(=O)C(=O)NCc1ccccc1C(=O)NC1(c2cc(Oc3cccc(OC)c3)cc(C(F)(F)F)c2)CC1 [Example 63]", "pIC50": "< 5.00"}
{"COMPOUND": "CN1CC(COc2ccc(CNC(=O)C(=O)NCC#N)c(C(=O)NC3(c4cccc5ccccc45)CC3)c2)C1 [Example 326]", "pIC50": "> 7.00"}
